# System: TERT-RPE1
# Protocol Text: Here: values are normalized to the negative (DMSO; defined as 0% autophagy induction) and positive (250nM Torin1; mTOR inhibitor; defined as maximal inducer of autophagy = 100%) control compounds and represented as % of autophagy induction. […] The impact of autophagy induction on cells is complex and depends on the affected target. As such, the magnitude of a phenotype may not be equally mirrored in the %-value of autophagy induction and vice versa. The dynamics of the induction may indicate the mode of activation: e.g. activation via phosphorylation or a signaling cascade may occur fast, while activation via transcription factors may take considerably longer. […] Of note, treatment concentrations may be sub-optimal for specific compounds, leading to false negative annotations.
# Assay type: functional, Homo sapiens
# Conditions: Compound Concentration 0.5 uM, Timepoint 60 hours, Culturing Media DMEM/F12 (1:1), 1 % Penicillin/Streptomycin, 10% Fetal bovin serum Add-On: No, Screening Media Control DMEM/F12 (1:1), Screening Media Samples DMEM/F12 (1:1)
Measured Quantity: autophagy induction (%)
Answers are plain numbers, in %.

Example compounds with recorded autophagy induction:
Cc1c(P(=S)(c2ccccc2)c2ccccc2)n2ccccc2[n+]1C/C=C/c1ccccc1.[Br-] = -17.0508
COC1CCN(c2cccc(-c3cc(NC(C)=O)nc(-n4nc(C)cc4C)n3)n2)CC1 = -12.2397
C[C@]1(C(=O)N(CCCC(=O)O)Cc2cccc(Cl)c2)CCN1C(=O)c1csc2ccccc12 [GLPG-0974] = -12.3909
Cc1c(C2=CCN(C(=O)N(C)C(C)C)CC2)nnn1-c1cccnc1F = -13.7381

// lookup autophagy induction for N#Cc1c(N)nc(SCC(N)=O)c(C#N)c1-c1ccc(OCC2CC2)cc1
-13.7976
